Observed Ki, system urease (Canavalia ensiformis).

{"compound": "CO/N=C(\\C(=O)N[C@@H]1C(=O)N2C(C(=O)O)=C(COC(C)=O)CS[C@H]12)c1csc(N)n1 [Cefotaxime sodium]", "Ki (µM)": 120}
{"compound": "CO/N=C(\\C(=O)N[C@@H]1C(=O)N2C(C(=O)O)=C(CSc3nc(=O)c(=O)[nH]n3C)CS[C@H]12)c1csc(N)n1 [Ceftriaxone sodium]", "Ki (µM)": 700}

====

biological target: jack bean urease (Canavalia ensiformis, UniProt P07374); construct: purchased Sigma; assay: biochemical; conditions: jack bean urease 5 U/ml, 100 mM urea, pH 8.2, OD625 nm; read-out: Jack bean urease inhibition IC50 ± SEM
Sequence (P07374 whole entry, looked up): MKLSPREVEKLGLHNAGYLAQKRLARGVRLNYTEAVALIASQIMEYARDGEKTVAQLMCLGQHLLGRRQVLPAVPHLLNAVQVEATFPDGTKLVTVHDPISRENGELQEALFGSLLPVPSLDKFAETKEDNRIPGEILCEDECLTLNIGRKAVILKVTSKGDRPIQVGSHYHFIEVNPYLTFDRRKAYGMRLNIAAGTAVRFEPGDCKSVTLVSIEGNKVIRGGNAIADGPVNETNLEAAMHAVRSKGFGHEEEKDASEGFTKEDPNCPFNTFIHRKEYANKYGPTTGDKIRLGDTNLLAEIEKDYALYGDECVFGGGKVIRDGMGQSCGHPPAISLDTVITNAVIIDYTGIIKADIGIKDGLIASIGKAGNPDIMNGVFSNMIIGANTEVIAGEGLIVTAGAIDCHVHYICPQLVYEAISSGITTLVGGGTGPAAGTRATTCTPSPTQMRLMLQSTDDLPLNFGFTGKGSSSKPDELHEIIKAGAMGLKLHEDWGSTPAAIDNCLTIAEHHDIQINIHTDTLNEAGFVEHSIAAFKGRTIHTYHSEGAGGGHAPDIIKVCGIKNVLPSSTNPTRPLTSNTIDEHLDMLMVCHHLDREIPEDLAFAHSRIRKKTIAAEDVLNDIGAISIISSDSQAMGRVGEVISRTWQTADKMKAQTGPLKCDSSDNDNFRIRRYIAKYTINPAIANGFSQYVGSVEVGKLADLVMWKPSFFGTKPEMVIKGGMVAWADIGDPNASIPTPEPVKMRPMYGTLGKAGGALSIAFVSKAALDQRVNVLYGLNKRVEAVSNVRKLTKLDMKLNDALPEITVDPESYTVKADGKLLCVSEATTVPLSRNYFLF
experimentalReadout: IC50

{"smilesRecord": "NC(N)=S", "val": "19 µM"}

====

target: jack bean urease (Canavalia ensiformis); construct: purchased Sigma; experiment: biochemical
# IC50 per record follows

{"compound": "N[C@@H](C(=O)N[C@@H]1C(=O)N2C(C(=O)O)=C(Cl)CS[C@H]12)c1ccccc1", "unitAbbrev": "µM", "IC50": 170}
{"compound": "CO/N=C(\\C(=O)N[C@@H]1C(=O)N2C(C(=O)O)=C(CSc3nc(=O)c(=O)[nH]n3C)CS[C@H]12)c1csc(N)n1 [Ceftriaxone sodium]", "unitAbbrev": "µM", "IC50": 80}
{"compound": "CO/N=C(\\C(=O)N[C@@H]1C(=O)N2C(C(=O)O)=C(COC(C)=O)CS[C@H]12)c1csc(N)n1 [Cefotaxime sodium]", "unitAbbrev": "µM", "IC50": 60}
{"compound": "COCC1=C(C(=O)OC(C)OC(=O)OC(C)C)N2C(=O)[C@@H](NC(=O)/C(=N\\OC)c3csc(N)n3)[C@H]2SC1 (some centres unmarked)", "unitAbbrev": "µM", "IC50": 100}
{"compound": "C=CC1=C(C(=O)O)N2C(=O)[C@@H](NC(=O)/C(=N\\OCC(=O)O)c3csc(N)n3)[C@H]2SC1 [Cefixime trihydrate]", "unitAbbrev": "µM", "IC50": 180}
{"compound": "CC1=C(C(=O)O)N2C(=O)[C@@H](NC(=O)[C@H](N)C3=CCC=CC3)[C@H]2SC1", "unitAbbrev": "µM", "IC50": 120}
{"compound": "CO/N=C(\\C(=O)N[C@@H]1C(=O)N2C(C(=O)O)=C(COC(N)=O)CS[C@H]12)c1ccco1", "unitAbbrev": "µM", "IC50": 180}
{"compound": "CC1=C(C(=O)O)N2C(=O)[C@@H](NC(=O)[C@H](N)c3ccccc3)[C@H]2SC1", "unitAbbrev": "µM", "IC50": 370}
{"compound": "CO/N=C(\\C(=O)N[C@@H]1C(=O)N2C(C(=O)[O-])=C(C[N+]3(C)CCCC3)CS[C@H]12)c1csc(N)n1 [Cefepime]", "unitAbbrev": "µM", "IC50": 190}
{"compound": "CC(C)(O/N=C(\\C(=O)N[C@@H]1C(=O)N2C(C(=O)[O-])=C(C[n+]3ccccc3)CS[C@H]12)c1csc(N)n1)C(=O)O", "unitAbbrev": "µM", "IC50": 91}
{"compound": "CC1=C(C(=O)O)N2C(=O)[C@@H](NC(=O)[C@H](N)c3ccc(O)cc3)[C@H]2SC1", "unitAbbrev": "µM", "IC50": 220}

This collection of values is drawn from paper PMC9352478.
